For each of the molecules below, state its pIC50.
TESTED SYSTEM: cIAP2-BIR2 (Homo sapiens (Human))
EXPERIMENT DESCRIPTION: BIR binding assay (FRET competition), cIAP2 BIR2
pIC50: −log10 of the molar value.

In the examples that follow, each entry is paired with its recorded pIC50.
[[record]]
molecule = "C[C@@H]1CN(CC(=O)N2CC(C)(C)c3[nH]c(=O)c(Cc4ccc(F)cc4)cc32)[C@@H](CN2CCN(C(=O)c3ccc(C(=O)N4CCN(C[C@H]5CN[C@H](C)CN5CC(=O)N5CC(C)(C)c6[nH]c(=O)c(Cc7ccc(F)cc7)cc65)[C@H](C)C4)cc3)C[C@H]2C)CN1 [Example 19]"
tested_system = "cIAP2-BIR2 (Homo sapiens (Human))"
property_measured = "pIC50"
measured_result = "6.00 to 7.65"

[[record]]
molecule = "C[C@@H]1CN(CC(=O)N2CC(C)(C)c3[nH]c(=O)c(Cc4ccc(F)cc4)cc32)[C@@H](CN2CCO[C@H](COc3ccc(Oc4cccc(Oc5ccc(OC[C@@H]6CN(C[C@H]7CN[C@H](C)CN7CC(=O)N7CC(C)(C)c8[nH]c(=O)c(Cc9ccc(F)cc9)cc87)CCO6)cc5)c4)cc3)C2)CN1 [Example 60]"
tested_system = "cIAP2-BIR2 (Homo sapiens (Human))"
property_measured = "pIC50"
measured_result = "4.29 to 5.00"

[[record]]
molecule = "C[C@@H]1CN(CC(=O)N2CC(C)(C)c3[nH]c(=O)c(Cc4ccc(Cl)cc4C#N)cc32)[C@@H](CN2CCO[C@H](COc3cccc(OC[C@@H]4CN(C[C@H]5CN[C@H](C)CN5CC(=O)N5CC(C)(C)c6[nH]c(=O)c(Cc7ccc(Cl)cc7C#N)cc65)CCO4)c3)C2)CN1 [Compound 189]"
tested_system = "cIAP2-BIR2 (Homo sapiens (Human))"
property_measured = "pIC50"
measured_result = "5.00 to 5.50"


Consider now this further molecule.
For cIAP2-BIR2 (Homo sapiens (Human)), give the measured pIC50 of the entry C[C@@H]1CN(CC(=O)N2CC(C)(C)c3ncc(N(C)c4ccc(F)cc4)cc32)[C@@H](CN2CCO[C@H](COc3cccc(OC[C@@H]4CN(C[C@H]5CN[C@H](C)CN5CC(=O)N5CC(C)(C)c6ncc(N(C)c7ccc(F)cc7)cc65)CCO4)c3)C2)CN1 [Compound 144]
4.29 to 5.00

* * *

TESTED SYSTEM: cIAP2-BIR2 (Homo sapiens (Human), UniProt Q13489)
Sequence (Q13489 158-242): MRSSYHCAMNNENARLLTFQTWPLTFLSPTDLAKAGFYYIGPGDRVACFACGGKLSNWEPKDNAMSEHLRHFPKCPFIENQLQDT
EXPERIMENT DESCRIPTION: BIR binding assay (FRET competition), cIAP2 BIR2
Procedure: The BIR domain binding assays are FRET based competition assays that utilize His-tagged versions of each of the BIR2 and BIR3 domains from cIAP1, cIAP2, and XIAP (each domain assayed separately) each at a custom optimal concentration and a probe, 200 nM SMAC/DIABLO peptide […] labelled with AlexaFluor647 (part #crb 1110326h, Discovery Peptides). The assay is conducted in 50 mM HEPES, […], 1 mM CHAPS, 5% Glycerol, 1 mM DTT, in dI water with a final pH of 7.4 and final volume of 20 uL. […]
pIC50: −log10 of the molar value.
PROPERTY MEASURED: pIC50

Examples from the recorded data:
[[record]]
compound = "C[C@@H]1CN(CC(=O)N2CC(C)(C)c3[nH]c(=O)c(Cc4ccc(F)cc4)cc32)[C@@H](CN2CCO[C@H](C(=O)NCC#CC#CCNC(=O)[C@@H]3CN(C[C@H]4CN[C@H](C)CN4CC(=O)N4CC(C)(C)c5[nH]c(=O)c(Cc6ccc(F)cc6)cc54)CCO3)C2)CN1 [Example 93]"
property_measured = "pIC50"
measured_result = "5.50 to 6.00"

[[record]]
compound = "C[C@@H]1CN(CC(=O)N2CC(C)(C)c3[nH]c(=O)c(Cc4ccc(F)cc4)cc32)[C@@H](CN2CCN(C(=O)COc3ccc(OCC(=O)N4CCN(C[C@H]5CN[C@H](C)CN5CC(=O)N5CC(C)(C)c6[nH]c(=O)c(Cc7ccc(F)cc7)cc65)[C@H](C)C4)cc3)C[C@H]2C)CN1 [Example 13]"
property_measured = "pIC50"
measured_result = "5.50 to 6.00"

[[record]]
compound = "C[C@@H]1CN(CC(=O)N2CC(C)(C)c3[nH]c(=O)c(Cc4ccc(F)cc4)cc32)[C@@H](CN2CCO[C@H](C(=O)NCC(=O)N3CCN(C[C@H]4CN[C@H](C)CN4CC(=O)N4CC(C)(C)c5[nH]c(=O)c(Cc6ccc(F)cc6)cc54)[C@H](C)C3)C2)CN1 [Compound 159]"
property_measured = "pIC50"
measured_result = "6.00 to 7.65"

[[record]]
compound = "C[C@@H]1CN(CC(=O)N2CC(C)(C)c3[nH]c(=O)c(Cc4ccc(F)cc4)cc32)[C@@H](CN2CCC(CCN(C)C(=O)c3ccc(C(=O)N(C)CCC4CCN(C[C@H]5CN[C@H](C)CN5CC(=O)N5CC(C)(C)c6[nH]c(=O)c(Cc7ccc(F)cc7)cc65)CC4)cc3)CC2)CN1 [Example 104]"
property_measured = "pIC50"
measured_result = "5.50 to 6.00"

[[record]]
compound = "C[C@@H]1CN(CC(=O)N2CC(C)(C)c3[nH]c(=O)c(Cc4ccc(F)cc4)cc32)[C@@H](CN2CCC(CNC(=O)Cc3ccc(CC(=O)NCC4CCN(C[C@H]5CN[C@H](C)CN5CC(=O)N5CC(C)(C)c6[nH]c(=O)c(Cc7ccc(F)cc7)cc65)CC4)cc3)CC2)CN1 [Example 102]"
property_measured = "pIC50"
measured_result = "5.00 to 5.50"

[[record]]
compound = "C[C@@H]1CN(CC(=O)N2CC(C)(C)c3[nH]c(=O)c(Cc4ccc(F)cc4)cc32)[C@@H](CN2CCO[C@H](C(=O)Nc3cccc(NC(=O)[C@@H]4CN(C[C@H]5CN[C@H](C)CN5CC(=O)N5CC(C)(C)c6[nH]c(=O)c(Cc7ccc(F)cc7)cc65)CCO4)c3)C2)CN1 [Compound 140]"
property_measured = "pIC50"
measured_result = "5.50 to 6.00"

[[record]]
compound = "C[C@@H]1CN(CC(=O)N2CC(C)(C)c3[nH]c(=O)c(Cc4ccc(F)cc4)cc32)[C@@H](CN2CCO[C@H](COCCCCCCOC[C@@H]3CN(C[C@H]4CN[C@H](C)CN4CC(=O)N4CC(C)(C)c5[nH]c(=O)c(Cc6ccc(F)cc6)cc54)CCO3)C2)CN1 [Example 64]"
property_measured = "pIC50"
measured_result = "4.29 to 5.00"

[[record]]
compound = "C[C@@H]1CN(CC(=O)N2CC(C)(C)c3[nH]c(=O)c(Cc4ccc(F)c(F)c4F)cc32)[C@@H](CN2CCO[C@H](C(=O)NCc3ccc(CNC(=O)[C@@H]4CN(C[C@H]5CN[C@H](C)CN5CC(=O)N5CC(C)(C)c6[nH]c(=O)c(Cc7ccc(F)c(F)c7F)cc65)CCO4)cc3)C2)CN1 [Compound 178]"
property_measured = "pIC50"
measured_result = "5.50 to 6.00"

[[record]]
compound = "C[C@@H]1CN(CC(=O)N2CC(C)(C)c3[nH]c(=O)c(Cc4ccc(F)cc4)cc32)[C@@H](CN2CCN(CCc3cn(CCCC(=O)N4CCN(C[C@H]5CN[C@H](C)CN5CC(=O)N5CC(C)(C)c6[nH]c(=O)c(Cc7ccc(F)cc7)cc65)[C@H](C)C4)nn3)C[C@H]2C)CN1 [Compound 157]"
property_measured = "pIC50"
measured_result = "6.00 to 7.65"

[[record]]
compound = "C[C@@H]1CN(CC(=O)N2CC(C)(C)c3[nH]c(=O)c(Cc4ccc(F)cc4)cc32)[C@@H](CN2CCC(CC(=O)NCc3ccc(CNC(=O)CC4CCN(C[C@H]5CN[C@H](C)CN5CC(=O)N5CC(C)(C)c6[nH]c(=O)c(Cc7ccc(F)cc7)cc65)CC4)cc3)CC2)CN1 [Example 105]"
property_measured = "pIC50"
measured_result = "5.00 to 5.50"


Dear colleague, could you please provide pIC50 for the compounds listed below?
1. Cc1c(NC(=O)[C@@H]2CN(C[C@H]3CN[C@H](C)CN3CC(=O)N3CC(C)(C)c4[nH]c(=O)c(Cc5ccc(F)cc5)cc43)CCO2)cccc1NC(=O)[C@@H]1CN(C[C@H]2CN[C@H](C)CN2CC(=O)N2CC(C)(C)c3[nH]c(=O)c(Cc4ccc(F)cc4)cc32)CCO1 [Compound 141]
2. C[C@@H]1CN(CC(=O)N2CC(C)(C)c3[nH]c(=O)c(Cc4ccc(F)cc4)cc32)[C@@H](CN2CCN(Cc3cn(CCC(=O)N4CCN(C[C@H]5CN[C@H](C)CN5CC(=O)N5CC(C)(C)c6[nH]c(=O)c(Cc7ccc(F)cc7)cc65)[C@H](C)C4)nn3)C[C@H]2C)CN1 [Compound 156]
3. C[C@@H]1CN(CC(=O)N2CC(C)(C)c3[nH]c(=O)c(Cc4ccc(F)cc4)cc32)[C@@H](CN2CCO[C@H](C(=O)NCC(O)CNC(=O)[C@@H]3CN(C[C@H]4CN[C@H](C)CN4CC(=O)N4CC(C)(C)c5[nH]c(=O)c(Cc6ccc(F)cc6)cc54)CCO3)C2)CN1 [Compound 137]

["5.50 to 6.00", "5.50 to 6.00", "5.50 to 6.00"]

Return reported pIC50 for target or system cIAP2-BIR2 (Homo sapiens (Human), UniProt Q13489), item C[C@@H]1CN(CC(=O)N2CC(C)(C)c3[nH]c(=O)c(Cc4ccc(F)cc4)cc32)[C@@H](CN2CCO[C@H](COc3ccc(F)c(OC[C@@H]4CN(C[C@H]5CN[C@H](C)CN5CC(=O)N5CC(C)(C)c6[nH]c(=O)c(Cc7ccc(F)cc7)cc65)CCO4)c3F)C2)CN1 [Example 74] .
5.50 to 6.00
